Provenance of the data: PubChem BioAssay

assay: CREB reporter modulators without forskolin, primary screen, cell-based, PC12, CRE-LacZ reporter, unstimulated (AID 1145); details: no forskolin, luminescence, 4.5 h, higher = more signal, called active from +8 up or from −8 down
Assign class by z-score: not lower than 0.2 means 1.0; lower than 0.2 means 0.0.

>>> group("COc1ccc(C(O)C2C=CC3C(=O)N(C)C(=O)C3N2Nc2ccccc2)cc1 (configuration not stated)")
0.0

Lookup: z-score >= 0.2 for O=C1C2C=CC(C(O)C(c3ccccc3)c3ccccc3)N(Nc3ccccc3F)C2C(=O)N1c1ccccc1 (configuration not stated) ?
Found: 1.0

---

target: Concanavalin-A (Canavalia ensiformis); test: ConA small-molecule binders, primary screen, artefact control for SMM control protein annotation, biochemical, small-molecule microarray, Alexa647 label, 635 nm (AID 1127); details: ConA-A647 binding fluorescence, higher = more signal;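 note: z combines 667 nm emission intensity with signal-to-noise across three replicate slides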
Measured Property: composite z-score
Write no unit; give the number alone.

In the examples that follow, each entry is paired with its recorded composite z-score.
>>> data_value("CCOC(=O)C[C@H]1[C@H](OC(=O)c2cc3ccccc3oc2=O)[C@@H](NC(=O)c2ccc(-c3ccccc3)cc2)c2cc(OCCCO)ccc2N1C(=O)Cc1ccc(OC)cc1")
0.833
>>> data_value("OCCCc1cc[n+](Cc2cc3c(cc2Br)OCO3)cc1")
-1.9
>>> data_value("O=C(NC1CC1)[C@@H]1c2ccccc2C(=O)N(C2CCCCC2)[C@H]1c1ccc(CO)cc1")
0.332

# input for lookup
Lookup: What value of composite z-score has been reported for the following compound? `COC(=O)[C@@]1(Cc2ccc(OC)cc2)[C@H]2c3cc(C(=O)N(C)C)n(Cc4c(CO)[nH]cc(C)c4=O)c3C[C@H]2CN1C(=O)c1ccccc1`
Found: 0.554

---

assay: small-molecule microarray binders of probe aLefty2, primary screen, biochemical, biotinylated probe, 635/667 nm fluorescence (AID 1094); conditions: higher = more signal;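 note: score merges spot fluorescence near 667 nm with spot signal-to-noise ratio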
Measured Property: composite z-score
Write no unit; give the number alone.

>>> data_value("COc1ccc(NN2C(C(O)c3ccccc3)C=CC3C(=O)N(C4CCCCC4)C(=O)C32)cc1 (stereo not drawn)")
0.107
>>> data_value("COCCOC(=O)N1C(=O)[C@@]2(c3cc(C#CCC(C(=O)OC)C(=O)OC)ccc31)[C@H](c1ccc(O)cc1)N1[C@H](c3ccccc3)[C@H](c3ccccc3)OC(=O)[C@H]1[C@@H]2C(=O)N1CCc2cc(OC)c(OC)cc2C1")
-0.103

Lookup: What value of composite z-score has been reported for the following compound? `C=C(COC)/C(=C/C[C@@H](OC(=O)c1ccncc1)c1ccccc1OCCO)c1cnc2ccccc2c1`
Found: -0.0304

---

Here the recorded z-score is given for each entry.
test: HepG2 liver cancer cell viability effects, profiling panel, resazurin fluorescence, 24 h, PK04 Diversity Set (AID 1172); conditions: higher = more signal; note: test concentration not given here
Write no unit; give the number alone.

>>> data_value("CN1C(=O)C2C=CC(C(O)COCc3ccccc3)N(Nc3ccc([N+](=O)[O-])cc3[N+](=O)[O-])C2C1=O (configuration not stated)")
-0.473

Lookup: What value of z-score has been reported for the following compound? `C=C(COC)/C(=C/C[C@@H](OC(=O)c1ccncc1)c1ccccc1OCCO)c1cnc2ccccc2c1`
Found: -0.567

Lookup: What value of z-score has been reported for the following compound? `COC(=O)[C@@]1(Cc2ccc(F)cc2)[C@H]2c3cc(C(=O)N(C)C)n(Cc4ccc(C(F)(F)F)nc4)c3C[C@H]2CN1C(=O)c1ccccc1`
Found: -0.575

Lookup: What value of z-score has been reported for the following compound? CC1CC/C=C\[C@H]2OC34C=CCN(C(C)C)C(=O)[C@H]3N(C(C)CO)C(=O)[C@@H]4C2C(=O)O1 (some centres not stated)
Found: 0.741

---

test system: Fibrinogen (Alexa647-labelled); assay: fibrinogen binders on compound microarrays, profiling panel, artefact control for SMM control-protein annotation, biochemical, small-molecule microarray, 635/667 nm fluorescence (AID 1131); conditions: fibrinogen-A647 binding fluorescence, higher = more signal;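 note: z-score merges 667 nm fluorescence with per-spot signal-to-noise over triplicate slides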
Measured Property: composite z-score

In the examples that follow, each entry is paired with its recorded composite z-score.
>>> data_value("Cc1c(NC(=O)/C(C#N)=C/C=C/c2ccc([N+](=O)[O-])cc2)c(=O)n(-c2ccccc2)n1C")
1.02
>>> data_value("C=C1C(=O)C=C2CN(C(=O)c3ccccc3)[C@@](Cc3ccc(F)cc3)(C(=O)OC)[C@@H]12")
1.03
>>> data_value("COC(=O)C(CC#Cc1ccc2c(c1)[C@]1(C(=O)N2)[C@H](c2ccccc2OCCO)N2[C@H](c3ccccc3)[C@H](c3ccccc3)OC(=O)[C@H]2[C@@H]1C(=O)N1CCN(c2ncccn2)CC1)C(=O)OC")
0.927
>>> data_value("COc1cc(Cc2cc3c(c(CCc4ccccc4)n2)[Si](C(C)C)(C(C)C)O[C@H]3c2ccccc2)cc(OC)c1OC")
0.0047
>>> data_value("COC(=O)[C@@]1(Cc2ccc(F)cc2)[C@@H]2C(=CC(=O)[C@H]2CC(=O)C(=O)N2CCCC2)CN1C(=O)c1ccccc1")
0.998

Lookup: composite z-score / Fibrinogen (Alexa647-labelled) / `COCCOC(=O)N1C(=O)[C@@]2(c3cc(C#CCCO)ccc31)[C@H](c1ccc(O)cc1)N1[C@H](c3ccccc3)[C@H](c3ccccc3)OC(=O)[C@H]1[C@@H]2C(=O)NC[C@H](O)c1ccccc1`
Found: 0.0868

Lookup: composite z-score / Fibrinogen (Alexa647-labelled) / `CCCCC=C[C@@H](NC(=O)C(C)(C)C)c1ccccc1`
Found: 0.935

Lookup: composite z-score / Fibrinogen (Alexa647-labelled) / `COCCOC(=O)N1C(=O)[C@@]2(c3cc(C#CC4=CCCCC4)ccc31)[C@H](c1ccc(O)cc1)N1[C@H](c3ccccc3)[C@H](c3ccccc3)OC(=O)[C@H]1[C@@H]2C(=O)N1CCc2cc(OC)c(OC)cc2C1`
Found: 0.789

Lookup: composite z-score / Fibrinogen (Alexa647-labelled) / `C=C(CCCC)/C(=C/C[C@@H](OC(C)=O)c1cccc(OCCO)c1)c1cc(C(=O)OC)ccc1OC`
Found: 0.249

Lookup: composite z-score / Fibrinogen (Alexa647-labelled) / `C=CCNC(=O)[C@@H]1[C@H]2C(=O)O[C@H](c3ccccc3)[C@H](c3ccccc3)N2[C@H](c2ccc(O)cc2)[C@@]12C(=O)N(C(=O)OCCOC)c1ccc(C#CCC(C(=O)OC)C(=O)OC)cc12`
Found: 0.271

Lookup: composite z-score / Fibrinogen (Alexa647-labelled) / `CC[C@@H]1C=C(C(=O)O)[C@H](c2cccc(Cl)c2)N1S(=O)(=O)c1ccc(C)cc1`
Found: -0.611

---

test: small-molecule microarray binders of probe aLefty2, primary screen, biochemical, biotinylated probe, 635/667 nm fluorescence (AID 1094); conditions: higher = more signal;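 note: score merges spot fluorescence near 667 nm with spot signal-to-noise ratio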
Here the recorded composite z-score is given for each entry.
Write no unit; give the number alone.

Lookup: What value of composite z-score has been reported for the following compound? `C=C(COC)C(=O)CC[C@H](OC(C)=O)c1ccc(CO)o1`
Found: -0.0963

Lookup: What value of composite z-score has been reported for the following compound? O=C1C2C=CC(C(O)C(c3ccccc3)c3ccccc3)N(Nc3ccccc3F)C2C(=O)N1c1ccccc1 (configuration not stated)
Found: 0.0943

Lookup: What value of composite z-score has been reported for the following compound? `COc1ccc([Si](C)(C)[C@H]2[C@H](CC(=O)N3CCC[C@H]3CO)O[C@@]3(C(=O)N(C)c4c(Br)cc(C)cc43)[C@@H]2C)cc1`
Found: 0.412

Lookup: What value of composite z-score has been reported for the following compound? CN1C(=O)C2C=CC(C(O)c3ccc([N+](=O)[O-])cc3)N(Nc3ccccc3)C2C1=O (configuration not stated)
Found: 0.222

Lookup: What value of composite z-score has been reported for the following compound? `CCOC(=O)C[C@H]1[C@H](OC(=O)Cc2ccc3c(c2)OCO3)[C@@H](NC(=O)CC(C)C)c2cc(OCCCO)ccc2N1C(=O)c1ccc2ccccc2n1`
Found: -0.145

Lookup: What value of composite z-score has been reported for the following compound? `COc1ccc(C(=O)Nc2ccc(CN3C(=O)[C@]4(O[C@H](CC(=O)N(CCO)Cc5ccccc5)[C@@H]([Si](C)(C)c5ccc(OC)cc5)[C@@H]4C)c4ccccc43)cc2)cc1`
Found: -0.235

Lookup: What value of composite z-score has been reported for the following compound? `CC(C)[Si]1(C(C)C)OCc2cc(-c3ccc(-c4ccc(Cl)c(Cl)c4)o3)nc(-c3ccc(Oc4ccccc4)cc3)c21`
Found: 0.0358

---

assay: A549 lung cancer cell viability effects, profiling panel, resazurin fluorescence, 24 h, PK04 Diversity Set (AID 1171); conditions: higher = more signal, called active from +8 up or from −8 down; note: test concentration not given here
Assign class by z-score: not lower than 0.2 means class 1; lower than 0.2 means class 0.

>>> group("COCCOC(=O)N1C(=O)[C@@]2(c3cc(C#CCC(C(=O)OC)C(=O)OC)ccc31)[C@H](C(=O)N1CCc3cc(OC)c(OC)cc3C1)[C@H]1C(=O)O[C@H](c3ccccc3)[C@H](c3ccccc3)N1[C@@H]2c1ccccc1OCCO")
"class 1"
>>> group("C=C(C(=O)CC[C@@H](OC(=O)c1ccccc1-c1ccccc1C(=O)O)c1ccc(OCCO)cc1)C(C)C")
"class 0"
>>> group("CC(C)(C)OC(=O)CC[C@]1(C(=O)N2CCOCC2)COC(c2ccc(OCCCO)cc2)=N1")
"class 1"
>>> group("COc1cc(Cc2cc3c(c(CCc4ccccc4)n2)[Si](C(C)C)(C(C)C)O[C@H]3c2ccccc2)cc(OC)c1OC")
"class 0"
>>> group("O=C1c2ccccc2[C@](Cc2ccccc2I)(C(=O)NCCN2CCOCC2)[C@H](c2ccc(CO)cc2)N1Cc1ccccc1C(F)(F)F")
"class 0"

Lookup: z-score >= 0.2 for CN1C(=O)C2CC=C(C3=CCO[C@@H]3[C@H]3CCCN3S(=O)(=O)c3ccccc3[N+](=O)[O-])CC2C1=O (stereo not given in full) ?
Found: class 1

Lookup: z-score >= 0.2 for `Cc1ccc(N2C(=O)c3ccccc3[C@@H](C(=O)NCCN3CCOCC3)[C@@H]2c2ccc(CO)cc2)nc1` ?
Found: class 1
